These measurements were taken from PubChem BioAssay.

- Protocol description: small-molecule microarray binders of probe aLefty2, primary screen, biochemical, biotinylated probe, 635/667 nm fluorescence (AID 1094);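 also: score merges spot fluorescence near 667 nm with spot signal-to-noise ratio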
- Condition summary: higher = more signal
In this section we review reported composite z-score values for a set of compounds.
// return just the number, without any unit appended

# example entries with known answers
{"Compound": "COCCOC(=O)N1C(=O)[C@@]2(c3cc(C#CCCO)ccc31)[C@H](c1ccccc1OCCO)N1[C@H](c3ccccc3)[C@H](c3ccccc3)OC(=O)[C@H]1[C@@H]2C(=O)Nc1nc2ccccc2s1", "composite z-score": -0.0063}
{"Compound": "C=CC[C@@]1(C(=O)N2CCOCC2)N=C(c2ccc(OCCCO)cc2)O[C@@H]1c1ccccc1CN=[N+]=[N-]", "composite z-score": 0.691}

Query: State its composite z-score: COc1ccc([Si](C)(C)[C@@H]2[C@@H](CCO)O[C@]3(C(=O)N(Cc4ccc(N5CCCCC5=O)cc4)c4ccccc43)[C@H]2C)cc1
Response: -0.181

Query: State its composite z-score: CC(C)N1C(=O)c2ccccc2[C@@H](C(=O)NC2CC2)[C@@H]1c1ccc(CO)cc1
Response: -0.117

Query: State its composite z-score: C=CCC(OC(C)=O)[C@@H]1[C@@H](N(Cc2cc3ccccc3o2)C(=O)Cc2ccc(F)cc2)c2cc(OCCCO)ccc2N1C(=O)c1ccc2ccccc2c1 (stereo partly drawn)
Response: -0.0708

Query: State its composite z-score: O=C1OCC=C[C@H]2OC34C=CCN(c5ccc(Cl)cc5)C(=O)[C@H]3N(CCO)C(=O)[C@@H]4[C@@H]12 (stereo partly drawn)
Response: -0.286

Query: State its composite z-score: O=C(N1CCCCC1)[C@@]1(CCS(=O)(=O)c2ccccc2)COC(c2ccc(OCCCO)cc2)=N1
Response: 0.369

Query: State its composite z-score: O=C1O[C@@H](c2ccccc2)[C@@H](c2ccccc2)N2[C@@H](c3ccccc3OCCO)[C@]3(C(=O)Nc4ccc(C#CCCO)cc43)[C@@H](C(=O)N3CCCCCCC3)[C@H]12
Response: 1.99

----------
- Target desc: Focal adhesion kinase 1 (Homo sapiens) (UniProt Q05397)
- Sequence (Q05397 whole entry, looked up): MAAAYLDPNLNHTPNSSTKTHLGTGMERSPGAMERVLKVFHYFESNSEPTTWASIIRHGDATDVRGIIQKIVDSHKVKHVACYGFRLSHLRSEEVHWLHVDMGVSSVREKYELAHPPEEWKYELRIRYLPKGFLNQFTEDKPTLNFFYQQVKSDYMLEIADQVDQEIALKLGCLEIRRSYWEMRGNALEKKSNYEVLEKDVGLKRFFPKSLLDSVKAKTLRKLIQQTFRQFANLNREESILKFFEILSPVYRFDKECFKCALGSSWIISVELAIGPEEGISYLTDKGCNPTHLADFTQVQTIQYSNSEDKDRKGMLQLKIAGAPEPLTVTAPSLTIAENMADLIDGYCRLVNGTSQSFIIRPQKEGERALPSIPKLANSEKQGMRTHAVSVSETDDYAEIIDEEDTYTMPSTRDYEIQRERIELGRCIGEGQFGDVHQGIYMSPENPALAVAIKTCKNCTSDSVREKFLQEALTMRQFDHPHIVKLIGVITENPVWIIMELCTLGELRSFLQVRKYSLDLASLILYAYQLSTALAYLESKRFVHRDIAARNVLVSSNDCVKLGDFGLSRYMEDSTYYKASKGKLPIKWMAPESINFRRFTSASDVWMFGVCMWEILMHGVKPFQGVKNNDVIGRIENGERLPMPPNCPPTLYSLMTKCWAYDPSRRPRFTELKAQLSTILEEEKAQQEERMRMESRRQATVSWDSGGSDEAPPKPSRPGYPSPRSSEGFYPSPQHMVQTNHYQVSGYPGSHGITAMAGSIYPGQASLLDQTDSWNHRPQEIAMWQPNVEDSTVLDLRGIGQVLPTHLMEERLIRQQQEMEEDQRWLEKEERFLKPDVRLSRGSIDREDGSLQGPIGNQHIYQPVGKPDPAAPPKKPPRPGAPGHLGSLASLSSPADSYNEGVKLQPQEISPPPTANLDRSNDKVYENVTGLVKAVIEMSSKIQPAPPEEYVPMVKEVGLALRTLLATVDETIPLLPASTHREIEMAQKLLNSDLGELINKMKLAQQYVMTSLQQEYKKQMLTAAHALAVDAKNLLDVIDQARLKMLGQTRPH
- Protocol description: small-molecule microarray binders of FAK, primary screen, biochemical, 635/667 nm fluorescence, BSA, DTT (AID 1130);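 also: composite of spot emission at 667 nm and signal to noise over triplicate slides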
- Condition summary: PTK2 binding, 635 nm fluorescence, higher = more signal
Endpoint: composite z-score
// return just the number, without any unit appended

# example entries with known answers
{"Compound": "COC(=O)[C@H](Cc1ccccc1)N1CC(/C=C/C2CC2)=C[C@H]1[C@H](O)Cc1ccccc1", "Target desc": "Focal adhesion kinase 1 (Homo sapiens) (UniProt Q05397)", "Endpoint": "composite z-score", "Obs value": 0.437}
{"Compound": "NCCCCCCNC(=O)[C@@H]1C[C@@H]2C(=O)N[C@@H](CCCCN)C(=O)N2[C@@H]1c1cccc(OCCO)c1", "Target desc": "Focal adhesion kinase 1 (Homo sapiens) (UniProt Q05397)", "Endpoint": "composite z-score", "Obs value": 1.21}
{"Compound": "CN(C)C(=O)[C@]1(CCS(=O)(=O)c2ccccc2)N=C(c2ccc(OCCCO)cc2)O[C@@H]1c1ccccc1N=[N+]=[N-]", "Target desc": "Focal adhesion kinase 1 (Homo sapiens) (UniProt Q05397)", "Endpoint": "composite z-score", "Obs value": 1.46}
{"Compound": "C[N+](C)(C)CCCC[C@@H]1NC(=O)[C@H]2C[C@@H](C(=O)NCCCCCCN)[C@@H](c3ccc(O)cc3)N2C1=O", "Target desc": "Focal adhesion kinase 1 (Homo sapiens) (UniProt Q05397)", "Endpoint": "composite z-score", "Obs value": 0.145}
{"Compound": "C=CCOC(=O)[C@H]1[C@@H]2C(=O)O[C@@H](c3ccccc3)[C@@H](c3ccccc3)N2[C@@H](c2ccc(OCCOC(=O)[C@@H]3C[C@@H]4C(=O)N[C@@H](CCCCN(C)C)C(=O)N4[C@@H]3c3ccc(O)cc3)cc2)[C@]12C(=O)Nc1ccccc12", "Target desc": "Focal adhesion kinase 1 (Homo sapiens) (UniProt Q05397)", "Endpoint": "composite z-score", "Obs value": 0.0515}

Query: State its composite z-score: [N-]=[N+]=Nc1ccccc1C[C@]1(C(N)=O)N=C(c2ccc(OCCCO)cc2)O[C@H]1c1ccccc1N=[N+]=[N-]
Response: -0.0221

Query: State its composite z-score: C=CC[C@@]1(C(=O)N2CCOCC2)N=C(c2ccc(OCCCO)cc2)O[C@@H]1c1ccccc1CN=[N+]=[N-]
Response: 0.201

----------
- Protocol description: small-molecule microarray binders of probe aLefty2, primary screen, biochemical, biotinylated probe, 635/667 nm fluorescence (AID 1094);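 also: score merges spot fluorescence near 667 nm with spot signal-to-noise ratio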
- Condition summary: higher = more signal
Endpoint: composite z-score
// return just the number, without any unit appended

# example entries with known answers
{"Molecule": "COC(=O)[C@@]1(Cc2ccc(OC)cc2)[C@H]2c3cc(C(=O)N(C)C)n(C[C@H](O)CO)c3C[C@H]2CN1C(=O)c1ccccc1", "Obs value": 0.955}
{"Molecule": "C=C(C(=O)CC[C@@H](OC(C)=O)c1ccc(CO)o1)C(C)C", "Obs value": -0.186}
{"Molecule": "CC1CC/C=C\\[C@H]2OC34C=CCN(c5ccc(Cl)cc5)C(=O)[C@H]3N(CCCCCO)C(=O)[C@]4(C)C2C(=O)O1 (stereo not given in full)", "Obs value": -0.233}
{"Molecule": "NCCCCCCNC(=O)[C@@H]1C[C@@H]2C(=O)N[C@@H](CCCCN)C(=O)N2[C@@H]1c1cccc(OCCO)c1", "Obs value": 0.885}

Query: State its composite z-score: CC1CC/C=C\[C@H]2OC34C=CCN(C(C)C)C(=O)[C@H]3N(CCCCCCO)C(=O)[C@@H]4C2C(=O)O1 (stereo not given in full)
Response: -0.136

Query: State its composite z-score: CC(c1ccccc1)C(O)C1C=CC2C(=O)N(c3ccccc3)C(=O)C2N1Nc1ccc([N+](=O)[O-])cc1 (stereo not given)
Response: 0.0249

Query: State its composite z-score: O=C1C=C(c2ccccc2)C(=O)c2ccc([C@H]3Oc4ccccc4S(=O)(=O)N4CCC[C@@H]34)cc21
Response: -0.18

Query: State its composite z-score: C=C(C)C1CCC(C(O)C2C=CC3C(=O)N(C)C(=O)C3N2N2CCCCC2)CC1 (stereo not given)
Response: 0.398

Query: State its composite z-score: COC(=O)c1c2oc(c1C(=O)OC)C(=O)N(C)Cc1cn(nn1)C[C@H](Cc1ccccc1)NC(=O)N[C@H](CO)CC2
Response: -0.174

Query: State its composite z-score: [N-]=[N+]=NCc1ccccc1C[C@@]1(C(=O)N2CCCCC2)N=C(c2ccc(OCCCO)cc2)O[C@@H]1c1ccccc1
Response: -0.0261

Query: State its composite z-score: CCCC[C@@H](O)C1=C(COc2ccccc2)C[C@H]2C(=O)N(C)C(=O)[C@H]2[C@H]1CO
Response: -0.247

Query: State its composite z-score: NCCCCCNC(=O)[C@@H]1C[C@@H]2C(=O)NCC(=O)N2[C@@H]1c1cccc(OCCO)c1
Response: 0.086

Query: State its composite z-score: CCOC(=O)C[C@H]1[C@H](OC(=O)c2ccccc2-c2ccccc2)[C@@H](NC(=O)C2CCCCC2)c2cc(OCCCO)ccc2N1C(=O)Cc1ccc(OC)cc1
Response: -0.132

Query: State its composite z-score: C=CCN1Cc2ccccc2[C@H]2OC(c3ccc(OCCCO)cc3)=N[C@@]2(CC=C)C1=O
Response: 0.185

Query: State its composite z-score: COCCCNC(=O)[C@@]1(Sc2ccc(C)cc2)CC(=O)N(C2CCCCC2)[C@@H]1c1ccc(CO)cc1
Response: 0.0977

Query: State its composite z-score: CC(C)(C)OC(=O)CC[C@]1(C(=O)NCc2ccccc2)N=C(c2ccc(OCCCO)cc2)O[C@H]1c1ccccc1CN=[N+]=[N-]
Response: 0.214

----------
- Protocol description: FRG1 promoter luciferase signal modulators, primary screen, FRG1 inhibition for FSHD, cell-based, C2C12 myotubes, firefly/Renilla luciferase, luminescence (AID 1084)
- Condition summary: higher = more signal, called active from +8 up or from −8 down
Outcome label depends on z-score relative to -0.3: at/above gives criterion met, below gives criterion not met.

Worked examples, 10 molecules total:
{"Molecule": "CN(C)CCCNC(=O)[C@@H]1c2ccccc2C(=O)N(Cc2ccccc2Cl)[C@H]1c1ccc(CO)cc1", "Discrete label": "criterion not met"}
{"Molecule": "O=C1O[C@@H](c2ccccc2)[C@@H](c2ccccc2)N2[C@@H](c3ccc(O)cc3)[C@]3(C(=O)Nc4ccc(C#CC5=CCCCC5)cc43)[C@@H](C(=O)NC[C@H](O)c3ccccc3)[C@H]12", "Discrete label": "criterion met"}
{"Molecule": "CCCCC(O)C1C=CC2C(=O)N(c3ccccc3)C(=O)C2N1Nc1ccc(C(C)C)cc1 (stereo unspecified)", "Discrete label": "criterion not met"}
{"Molecule": "CC(C)(C)N1CC=CC23O[C@@H]4C=CCCOC(=O)C4[C@H]2C(=O)N(CCO)[C@@H]3C1=O (stereo partly specified)", "Discrete label": "criterion met"}
{"Molecule": "O=C1O[C@H](c2ccccc2)[C@H](c2ccccc2)N2[C@H]1[C@@H](C(=O)Nc1nc3ccccc3s1)[C@]1(C(=O)Nc3ccc(C#CCCO)cc31)[C@H]2c1ccc(O)cc1", "Discrete label": "criterion met"}
{"Molecule": "CCOC(=O)C[C@H]1[C@H](OC(=O)c2cc3ccccc3oc2=O)[C@@H](NC(=O)Cc2ccc(OC)cc2)c2cc(OCCCO)ccc2N1C(=O)c1ccc2ccccc2n1", "Discrete label": "criterion not met"}
{"Molecule": "[N-]=[N+]=Nc1ccccc1C[C@]1(C(N)=O)N=C(c2ccc(OCCCO)cc2)O[C@H]1c1ccccc1N=[N+]=[N-]", "Discrete label": "criterion not met"}
{"Molecule": "COc1ccccc1CN1C(=O)c2ccccc2[C@@]2(Cc3ccccc3N(CC(F)(F)F)C2=O)[C@@H]1c1ccc(CO)cc1", "Discrete label": "criterion not met"}
{"Molecule": "Cc1ccc(S[C@]2(C(=O)NCC(F)(F)F)CC(=O)N(C3CCCCC3)[C@@H]2c2ccc(CO)cc2I)cc1", "Discrete label": "criterion not met"}
{"Molecule": "COCCOC(=O)N1C(=O)[C@@]2(c3cc(C#Cc4ccc(OC)cc4)ccc31)[C@H](c1ccc(O)cc1)N1[C@H](c3ccccc3)[C@H](c3ccccc3)OC(=O)[C@H]1[C@@H]2C(=O)N1CCCCCCC1", "Discrete label": "criterion met"}

Query: Determine whether measured z-score meets or exceeds -0.3 for CCOC(=O)C[C@H]1[C@H](OC(=O)c2cc3ccccc3oc2=O)[C@@H](NC(=O)c2ccc(-c3ccccc3)cc2)c2cc(OCCCO)ccc2N1C(=O)c1ccccc1
Response: criterion met

Query: Determine whether measured z-score meets or exceeds -0.3 for O=C1O[C@H](c2ccccc2)[C@H](c2ccccc2)N2[C@H]1[C@@H](C(=O)NC[C@H](O)c1ccccc1)[C@]1(C(=O)Nc3ccc(C#CCCO)cc31)[C@H]2c1ccc(OCCO)cc1
Response: criterion met

Query: Determine whether measured z-score meets or exceeds -0.3 for O[C@@H](Cc1ccccc1)[C@@H](/C=C/C1CC1)N(CC#Cc1ccccc1)Cc1cccc(Cl)c1
Response: criterion not met

Query: Determine whether measured z-score meets or exceeds -0.3 for C[C@]1(C(=O)NC2CC2)c2ccccc2C(=O)N(Cc2ccccc2)[C@H]1c1ccc(CO)cc1
Response: criterion not met

Query: Determine whether measured z-score meets or exceeds -0.3 for O=C1OCCC/C=C\[C@H]2OC34C=CCN(CCN5CCOCC5)C(=O)[C@H]3N(CCCCCCO)C(=O)[C@@H]4C12 (stereo partly specified)
Response: criterion not met
